All values here come from patent US20090118336A1.

Measured pIC50, listed per entry for reference.
# system: p110α Type Ia human PI3K (Homo sapiens)
# Construct: full length DNA of each of the p110α, p110β and p110δ Type Ia human PI3K p110 isoforms; 6-His
# Sequence (P42336 whole entry, canonical isoform): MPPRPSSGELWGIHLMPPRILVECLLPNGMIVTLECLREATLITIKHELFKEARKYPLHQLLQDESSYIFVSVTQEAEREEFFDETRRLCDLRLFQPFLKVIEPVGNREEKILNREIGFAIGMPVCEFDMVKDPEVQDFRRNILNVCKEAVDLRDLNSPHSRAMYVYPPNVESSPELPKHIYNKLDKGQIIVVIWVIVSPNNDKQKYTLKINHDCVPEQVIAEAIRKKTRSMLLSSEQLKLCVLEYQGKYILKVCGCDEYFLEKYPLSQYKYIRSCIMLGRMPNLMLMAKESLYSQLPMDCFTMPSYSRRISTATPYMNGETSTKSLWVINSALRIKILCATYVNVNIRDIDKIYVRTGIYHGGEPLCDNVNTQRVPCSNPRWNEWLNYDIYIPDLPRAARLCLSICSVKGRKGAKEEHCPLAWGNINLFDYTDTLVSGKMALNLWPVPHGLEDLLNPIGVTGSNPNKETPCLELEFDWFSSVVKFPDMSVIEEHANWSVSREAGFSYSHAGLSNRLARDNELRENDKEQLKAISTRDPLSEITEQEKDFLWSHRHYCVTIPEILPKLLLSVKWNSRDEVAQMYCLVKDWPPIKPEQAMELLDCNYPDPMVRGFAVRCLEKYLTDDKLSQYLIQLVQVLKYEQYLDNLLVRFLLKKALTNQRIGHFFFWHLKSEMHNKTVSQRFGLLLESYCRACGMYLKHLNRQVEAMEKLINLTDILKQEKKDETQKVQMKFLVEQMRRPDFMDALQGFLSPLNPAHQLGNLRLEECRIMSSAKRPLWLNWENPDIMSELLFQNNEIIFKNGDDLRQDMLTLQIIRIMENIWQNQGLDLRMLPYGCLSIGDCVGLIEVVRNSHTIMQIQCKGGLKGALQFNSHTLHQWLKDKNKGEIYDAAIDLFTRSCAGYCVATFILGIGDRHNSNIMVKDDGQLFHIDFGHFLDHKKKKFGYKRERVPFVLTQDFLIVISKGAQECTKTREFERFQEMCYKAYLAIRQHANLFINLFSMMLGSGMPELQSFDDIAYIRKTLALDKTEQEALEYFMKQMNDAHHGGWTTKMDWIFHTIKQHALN
# Sequence (P27986 whole entry partner, canonical isoform): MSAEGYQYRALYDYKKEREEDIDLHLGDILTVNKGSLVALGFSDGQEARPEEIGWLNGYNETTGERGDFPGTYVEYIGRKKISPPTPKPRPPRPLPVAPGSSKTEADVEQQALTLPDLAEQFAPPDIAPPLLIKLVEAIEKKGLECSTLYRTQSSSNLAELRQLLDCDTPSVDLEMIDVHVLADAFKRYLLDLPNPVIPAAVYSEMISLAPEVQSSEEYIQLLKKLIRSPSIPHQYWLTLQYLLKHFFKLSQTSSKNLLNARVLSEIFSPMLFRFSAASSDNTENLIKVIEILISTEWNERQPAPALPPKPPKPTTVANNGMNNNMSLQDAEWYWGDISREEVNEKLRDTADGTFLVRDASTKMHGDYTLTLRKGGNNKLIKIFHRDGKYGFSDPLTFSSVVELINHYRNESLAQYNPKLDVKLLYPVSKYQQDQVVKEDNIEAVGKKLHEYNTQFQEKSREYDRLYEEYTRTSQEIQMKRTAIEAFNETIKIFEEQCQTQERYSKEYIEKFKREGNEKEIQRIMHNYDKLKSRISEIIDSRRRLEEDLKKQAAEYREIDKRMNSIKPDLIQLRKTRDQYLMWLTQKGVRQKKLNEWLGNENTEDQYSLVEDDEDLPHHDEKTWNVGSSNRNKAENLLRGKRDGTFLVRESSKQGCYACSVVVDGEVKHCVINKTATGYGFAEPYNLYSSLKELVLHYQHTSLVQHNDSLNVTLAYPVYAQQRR
# measurement-protocol: In vitro PI3K enzyme assay (AlphaScreen), Test (a)
# measurement-context: recombinant enzyme, PI(4,5)P2 substrate, ATP 4 μM, read-out: IC50 versus p110α Type Ia human PI3K
pIC50: −log10 of the molar value.

- mol-smiles: "CC(=O)Nc1cc(-c2cncc(NS(C)(=O)=O)c2)n(C)n1"
  pIC50: "~5.30"

For the next question, use this compound.
Input: With p110α Type Ia human PI3K (Homo sapiens) as the test system, provide measured pIC50 for this compound: `CC(=O)Nc1cc(-c2cncc(NS(=O)(=O)c3c(C)nn(C)c3Cl)c2)n(C)n1`
Output: ~6.30
